Every entry's value here was drawn from paper PMC3271085.

- target-desc: soluble, secreted form of HSV-2 glycoprotein G (SgG2) (herpes simplex virus type 2) (UniProt P13290)
- Sequence (P13290 23-699): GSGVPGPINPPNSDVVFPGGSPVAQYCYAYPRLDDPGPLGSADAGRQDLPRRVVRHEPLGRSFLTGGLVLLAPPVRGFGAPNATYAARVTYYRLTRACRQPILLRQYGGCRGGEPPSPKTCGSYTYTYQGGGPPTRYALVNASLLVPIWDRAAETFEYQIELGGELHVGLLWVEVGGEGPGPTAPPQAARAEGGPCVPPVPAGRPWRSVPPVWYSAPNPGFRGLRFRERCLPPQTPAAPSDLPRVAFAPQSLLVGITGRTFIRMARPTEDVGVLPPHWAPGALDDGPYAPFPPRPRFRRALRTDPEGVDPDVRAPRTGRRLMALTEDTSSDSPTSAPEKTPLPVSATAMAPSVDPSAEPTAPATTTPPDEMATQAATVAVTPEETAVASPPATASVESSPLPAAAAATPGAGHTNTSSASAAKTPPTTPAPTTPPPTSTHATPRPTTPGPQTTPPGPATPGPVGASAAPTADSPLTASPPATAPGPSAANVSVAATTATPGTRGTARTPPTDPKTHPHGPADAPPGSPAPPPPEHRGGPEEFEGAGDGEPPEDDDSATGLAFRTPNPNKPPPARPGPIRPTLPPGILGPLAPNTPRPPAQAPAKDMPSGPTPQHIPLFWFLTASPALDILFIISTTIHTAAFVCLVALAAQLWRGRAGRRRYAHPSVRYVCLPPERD
- assay-method-text: SPR; Biacore X; SgG1 or SgG2 amine-coupled to CM5 chips (dialysed against acetate buffer pH 5.0 for SgG1, pH 5.5 for SgG2); chemokines injected; screening at 100 nM and kinetic conditions as in ref. 16; Biaevaluation 3.2
measured-attribute: Kd (nM)
Answers are plain numbers, in nM.

Consider the reported Kd for these binders:
binder	unit-abbreviation	reported-value
human CXCL14 (ligand, also called hCXCL14; source: commercially available (Protocol S2)) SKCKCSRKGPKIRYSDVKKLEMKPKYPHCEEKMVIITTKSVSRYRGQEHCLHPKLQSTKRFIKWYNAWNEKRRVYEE	nM	4.3
human CXCL9 (ligand, also called hCXCL9; source: commercially available (Protocol S2)) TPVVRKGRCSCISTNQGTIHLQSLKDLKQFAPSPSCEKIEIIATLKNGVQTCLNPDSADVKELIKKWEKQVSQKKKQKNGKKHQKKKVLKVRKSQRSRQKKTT	nM	12.3
human CCL22 (ligand) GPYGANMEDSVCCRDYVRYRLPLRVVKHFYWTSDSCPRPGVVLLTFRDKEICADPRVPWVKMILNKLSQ	nM	5.22
human CXCL13 (ligand, also called hCXCL13; source: commercially available (Protocol S2)) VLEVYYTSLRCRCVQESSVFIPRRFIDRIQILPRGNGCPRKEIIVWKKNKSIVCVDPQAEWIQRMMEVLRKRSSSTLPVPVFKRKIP	nM	4.3
human CCL18 (ligand, also called hCCL18; source: commercially available (Protocol S2)) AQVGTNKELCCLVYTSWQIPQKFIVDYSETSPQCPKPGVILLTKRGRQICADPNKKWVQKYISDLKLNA	nM	28

Each binder below has a reported value. Please supply its Kd.
1. human CXCL11 (ligand, also called hCXCL11; source: commercially available (Protocol S2)) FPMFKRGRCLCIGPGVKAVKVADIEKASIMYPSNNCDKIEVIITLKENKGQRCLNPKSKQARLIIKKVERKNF
2. human CCL28 (ligand, also called hCCL28; source: commercially available (Protocol S2)) SEAILPIASSCCTEVSHHISRRLLERVNMCRIQRADGDCDLAAVILHVKRRRICVSPHNHTVKQWMKVQAAKKNGKGNVCHRKKHHGKRNSNRAHQGKHETYGHKTPY

// result
1. 6
2. 3.2
